# Experimental system: hERG (KCNH2) (Homo sapiens)
# Assay details: Inhibition of human ERG expressed in CHO-K1 cells at 10 uM by whole-cell patch clamp technique
# Format: cell-based
# Assay context: CHO-K1 cells that express human ERG
Metric: inhibition at 10 µM

>>> endpoint_value("CCOC1CN(C(=O)c2cc3c(nc(C)n3C)c3c2CC[C@@H](c2ccccc2C)O3)C1")
"70%"
>>> endpoint_value("C#CCNC(=O)c1cc2c(nc(C)n2C)c2c1CC[C@@H](c1ccccc1C)O2")
"83%"
>>> endpoint_value("Cc1nc2c3c(c(C(=O)N(C)C)cc2n1C)CC[C@@H](c1ccc(Cl)cc1)O3")
"84%"
>>> endpoint_value("Cc1nc2c3c(c(C(=O)N(C)C)cc2n1C)CC[C@@H](c1ccccc1Cl)O3")
"13%"

With those in mind, consider the next molecule.
Please fill in: inhibition at 10 µM reported for Cc1nc2c3c(c(C(=O)N(C)C)cc2n1C)CC[C@@H](c1ccc(F)cc1Cl)O3 = 33%

* * *

The molecules listed here are annotated with their logD.
# Assay details: Octanol/aqueous KCl distribution coefficient, log D at pH 7.4 by potentiometric titration
# Type: physicochemical

>>> endpoint_value("Cc1nc2c3c(c(C(=O)N(C)C)cc2n1C)CC[C@@H](c1ccc(Cl)cc1Cl)O3")
3.66

Please fill in: logD reported for Cc1cc(Cl)ccc1[C@@H]1CCc2c(C(=O)N3CCC3)cc3c(nc(C)n3C)c2O1 = 3.43

Please fill in: logD reported for Cc1ccccc1[C@@H]1CCc2c(C(=O)N(C)C)cc3c(nc(C4CC4)n3C)c2O1 = 2.84

Please fill in: logD reported for Cc1sccc1[C@@H]1CCc2c(C(=O)N(C)C)cc3c(nc(C)n3C)c2O1 = 2.32

Please fill in: logD reported for COC1CN(C(=O)c2cc3c(nc(C)n3C)c3c2CC[C@@H](c2ccc(Cl)cc2C)O3)C1 = 3.42

* * *

# Assay details: Partition coefficient, log D by HPLC
# Format: physicochemical
# Assay context: octanol/water
Metric: logD
Simply state the number, no unit and no words.

>>> endpoint_value("Cc1ccccc1[C@@H]1CCc2c(C(=O)NC3CC3)cc3c(nc(C)n3C)c2O1")
3
>>> endpoint_value("Cc1nc2c3c(c(C(=O)N(C)C)cc2n1C)CC[C@@H](c1ccccc1Cl)O3")
3
>>> endpoint_value("Cc1ccccc1[C@@H]1CCc2c(C(=O)N3CC(CO)C3)cc3c(nc(C)n3C)c2O1")
2.4
>>> endpoint_value("Cc1nnc(-c2cc3c(nc(C)n3C)c3c2CC[C@@H](c2ccccc2C)O3)o1")
3.3

With those in mind, consider the next compound.
Please fill in: logD reported for Cc1nc2c3c(c(C(=O)N(C)C)cc2n1C)CC[C@@H](c1cccs1)O3 = 2.4

* * *

# Assay details: Inhibition of H+/K+ ATPase in hog gastric mucosa by malachite green based competitive binding assay
# Type: tissue-based, Sus scrofa
The molecules listed here are annotated with their pIC50.
Simply state the number, no unit and no words.

Recorded results for 3 molecules are shown here.
>>> endpoint_value("C#CCNC(=O)c1cc2c(nc(C)n2C)c2c1CC[C@@H](c1ccccc1C)O2")
4.7
>>> endpoint_value("Cc1ccccc1[C@@H]1CCc2c(C(=O)N3CCC3)cc3c(nc(C)n3C)c2O1")
5.5
>>> endpoint_value("Cc1cc(F)ccc1[C@@H]1CCc2c(C(=O)N(C)C)cc3c(nc(C)n3C)c2O1")
5.6

Please fill in: pIC50 reported for Cc1nc2c3c(c(C(=O)N(C)C)cc2n1C)CC[C@@H](c1ccc(Cl)cc1)O3 = 5.1

Please fill in: pIC50 reported for Cc1ccccc1[C@@H]1CCc2c(C(=O)N3CCCC3)cc3c(nc(C)n3C)c2O1 = 5.4

* * *

# Assay details: Oral bioavailability in Beagle dog fistula model
# Type: ADME, organism-based, Canis lupus familiaris
# Assay context: in vivo
Metric: bioavailability

Please fill in: bioavailability reported for Cc1ccccc1[C@@H]1CCc2c(C(=O)N(C)C)cc3c(nc(C)n3C)c2O1 = 72%

* * *

The molecules listed here are annotated with their inhibition at 10 µM.
# Experimental system: hERG (KCNH2) (Homo sapiens, UniProt Q12809)
# Sequence (Q12809 whole entry): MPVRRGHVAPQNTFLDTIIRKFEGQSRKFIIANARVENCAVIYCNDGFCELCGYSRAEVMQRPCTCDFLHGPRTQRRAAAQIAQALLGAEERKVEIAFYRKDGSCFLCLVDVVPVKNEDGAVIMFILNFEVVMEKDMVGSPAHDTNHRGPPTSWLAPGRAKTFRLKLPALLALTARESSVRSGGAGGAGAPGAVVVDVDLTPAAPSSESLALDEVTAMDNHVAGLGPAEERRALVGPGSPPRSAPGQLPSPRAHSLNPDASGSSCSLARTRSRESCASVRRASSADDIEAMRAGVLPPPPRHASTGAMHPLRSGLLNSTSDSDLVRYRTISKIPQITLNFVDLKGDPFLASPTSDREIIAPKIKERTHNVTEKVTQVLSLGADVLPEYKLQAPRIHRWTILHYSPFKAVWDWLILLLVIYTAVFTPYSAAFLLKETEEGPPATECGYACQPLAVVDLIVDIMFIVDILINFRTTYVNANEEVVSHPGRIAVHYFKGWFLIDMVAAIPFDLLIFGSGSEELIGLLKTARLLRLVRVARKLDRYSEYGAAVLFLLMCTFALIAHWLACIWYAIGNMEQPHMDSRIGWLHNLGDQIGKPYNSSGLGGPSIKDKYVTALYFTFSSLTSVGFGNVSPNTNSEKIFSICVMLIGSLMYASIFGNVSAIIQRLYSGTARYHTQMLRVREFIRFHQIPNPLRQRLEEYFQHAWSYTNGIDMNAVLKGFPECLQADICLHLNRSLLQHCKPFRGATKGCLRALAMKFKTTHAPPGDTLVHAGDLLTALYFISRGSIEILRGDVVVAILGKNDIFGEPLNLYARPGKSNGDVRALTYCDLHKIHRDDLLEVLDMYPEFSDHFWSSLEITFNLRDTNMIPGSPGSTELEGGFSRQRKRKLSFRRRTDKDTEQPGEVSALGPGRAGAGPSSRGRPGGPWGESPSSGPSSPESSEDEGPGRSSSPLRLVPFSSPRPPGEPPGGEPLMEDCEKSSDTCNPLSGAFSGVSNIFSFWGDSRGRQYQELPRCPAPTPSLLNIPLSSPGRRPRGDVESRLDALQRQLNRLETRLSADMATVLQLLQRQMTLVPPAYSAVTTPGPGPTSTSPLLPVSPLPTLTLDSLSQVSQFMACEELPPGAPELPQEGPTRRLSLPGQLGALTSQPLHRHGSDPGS
# Assay details: Inhibition of human ERG expressed in CHO-K1 cells at 10 uM by whole-cell patch clamp technique
# Type: cell-based
# Assay context: CHO-K1 cells that express human ERG
// units = %; emit number, no label

>>> endpoint_value("COCc1nc2c3c(c(C(=O)N(C)C)cc2n1C)CC[C@@H](c1ccccc1C)O3")
7
>>> endpoint_value("COC1(C)CN(C(=O)c2cc3c(nc(C)n3C)c3c2CC[C@@H](c2ccccc2C)O3)C1")
20
>>> endpoint_value("Cc1ccccc1[C@@H]1CCc2c(C(=O)NCC3CC3)cc3c(nc(C)n3C)c2O1")
90
>>> endpoint_value("Cc1ccccc1[C@@H]1CCc2c(C(=O)N3CC(CO)C3)cc3c(nc(C)n3C)c2O1")
2
>>> endpoint_value("Cc1ccccc1[C@@H]1CCc2c(C(=O)N3CCCC3)cc3c(nc(C)n3C)c2O1")
43

Please fill in: inhibition at 10 µM reported for CCCOC1CN(C(=O)c2cc3c(nc(C)n3C)c3c2CC[C@@H](c2ccccc2C)O3)C1 = 94

* * *

# Assay details: Inhibition of H+/K+ ATPase in hog gastric mucosa by malachite green based competitive binding assay
# Assay type: tissue-based, Sus scrofa
The compounds listed here are annotated with their pIC50.
Simply state the number, no unit and no words.

Recorded results for 5 compounds are shown here.
>>> endpoint_value("Cc1ccccc1[C@@H]1CCc2c(C(=O)N3CC(CO)C3)cc3c(nc(C)n3C)c2O1")
5
>>> endpoint_value("CNC(=O)c1cc2c(nc(C)n2C)c2c1CC[C@@H](c1ccc(Cl)cc1C)O2")
4.9
>>> endpoint_value("Cc1ccccc1[C@@H]1CCc2c(C(N)=O)cc3c(nc(C)n3C)c2O1")
4.8
>>> endpoint_value("CCNC(=O)c1cc2c(nc(C)n2C)c2c1CC[C@@H](c1ccccc1C)O2")
4.9
>>> endpoint_value("CCOC1CN(C(=O)c2cc3c(nc(C)n3C)c3c2CC[C@@H](c2ccccc2C)O3)C1")
4.5

Please fill in: pIC50 reported for Cc1nc2c3c(c(C(=O)N4CCC4)cc2n1C)CC[C@@H](c1ccccc1)O3 = 4.9

Please fill in: pIC50 reported for Cc1nc2c3c(c(C(=O)N(C)C)cc2n1C)CC[C@@H](c1ccccc1C1CC1)O3 = 4.8

* * *

The compounds listed here are annotated with their pIC50.
# Assay details: Inhibition of H+/K+ ATPase in hog gastric mucosa by malachite green based competitive binding assay
# Format: tissue-based, Sus scrofa
Simply state the number, no unit and no words.

Please fill in: pIC50 reported for Cc1ccccc1[C@@H]1CCc2c(C(=O)N3CC(F)C3)cc3c(nc(C)n3C)c2O1 = 5

Please fill in: pIC50 reported for Cc1nc2c3c(c(C(=O)N(C)C)cc2n1C)CC[C@@H](c1cccs1)O3 = 5

Please fill in: pIC50 reported for Cc1ccccc1[C@@H]1CCc2c(C(=O)N3CC(O)C3)cc3c(nc(C)n3C)c2O1 = 5

Please fill in: pIC50 reported for CCCOC1CN(C(=O)c2cc3c(nc(C)n3C)c3c2CC[C@@H](c2ccccc2C)O3)C1 = 4.9
